Origin of measurements: PubChem BioAssay (NCATS)

Test system: CP203
procedure_details: qHTS profiling for inhibitors of Plasmodium falciparum proliferation (AID 504749); also: nearly all actives have a fitted effect of over 60% in size
settings: P. falciparum in erythrocytes, SYBR Green DNA, 72 h; series mostly up to 28.7 µM
Protocol: NIH National Institute of Allergy and Infectious Diseases [NIAID] NIH Chemical Genomics Center [NCGC] […] Because mature erythrocytes lack DNA, only Plasmodium-derived DNA is detected. NCGC Assay Protocol Summary: The SYBR Green viability assay was adapted from a method described previously (Plouffe et al., 2008). […] The following morning, fluorescence intensity at 485(14) nm excitation and 535(25) nm emission wavelengths was measured on an EnVision (Perkin Elmer) plate reader. […]
Results filed as inconclusive are left out. Activity calls are given as the source filed them. Calls follow the shape of the dose curve; as a rule, active = well fitted inhibition curve with a large enough effect; inconclusive = small, poorly fitted or top-dose-only effect; inactive = flat fitted curve, though single readings scatter.
Bench note: report the call from active, inactive

These solved cases illustrate the format of a correct answer.
CCCC(=O)Nc1c(I)cc(I)c(C[C@H](CC)C(=O)O)c1I: inactive
CCCCCOC(=O)Nc1nc(=O)n(C2O[C@H](C)[C@@H](O)[C@@H]2O)cc1F (stereo partly specified): inactive

// outcome(item) with item = Nc1nc(Cl)nc2c1ncn2[C@@H]1O[C@H](CO)[C@H](O)C1F (stereo partly specified)
inactive

Consider next the compound `O=C(O)[C@H]1C[C@@H](CP(=O)(O)O)CCN1` in the same way.
inactive

Next compound up: `CCCC[C@H](O)c1ccccc1`
inactive

Note, next up: CC1CCC(C(C)C)C(O)C1 (stereo unspecified)
inactive

Entry NC(=O)C1CC2(NC(=O)NC2=O)c2cc(F)ccc2O1 (stereo unspecified) please
inactive

Here is the next compound: CC[C@H]1OC(=O)[C@H](C)C(=O)[C@H](C)[C@@H](OC2O[C@H](C)C[C@H](N(C)C)[C@@H]2O)[C@@](C)(OC)C[C@@H](C)C(=O)[C@@H](C)C2N(CCCCn3cnc(-c4cccnc4)c3)C(=O)O[C@@]21C (stereo partly specified)
inactive

Also, C=C(CC[C@@H](C)[C@H]1CCC2[C@]1(C)CC[C@]13C[C@@]14CCC(OC(=O)/C=C/c1ccc(O)c(OC)c1)C(C)(C)[C@@H]4CC[C@@]23C)C(C)C (stereo partly specified) please.
inactive

Do the same for CNC(=O)C(N)CSC(C)C1=C(C)c2cc3[n-]c(cc4nc(cc5[n-]c(cc1n2)c(C)c5CCC(=O)O)C(CCC(=O)O)=C4C)c(C)c3C(C)SCC(N)C(=O)NC.[Fe+2] (stereo unspecified) please
inactive

What about CC(=O)N[C@H]1[C@H](O[C@@H]2c3ccc(c(Cl)c3)Oc3cc4cc(c3O[C@@H]3O[C@H](CO)[C@@H](O)[C@H](O)C3C)Oc3ccc(cc3Cl)C[C@H]3NC(=O)[C@@H](N)c5ccc(O)c(c5)Oc5cc(O)cc(c5)[C@H](NC3=O)C(=O)N[C@H]4C(=O)N[C@H]3C(=O)N[C@@H]2C(=O)N[C@@H](C(=O)O)c2cc(O)cc(O[C@H]4O[C@H](CO)[C@@H](O)C(O)[C@@H]4O)c2-c2cc3ccc2O)O[C@H](CO)[C@@H](O)[C@@H]1O (stereo partly specified) ?
inactive

Again, but for COc1ccc2cc1Oc1cc3c(cc1OC)CC[N+](C)(C)C3Cc1ccc(cc1)Oc1c(OC)c(OC)cc3c1C(C2)[N+](C)(C)CC3 (stereo unspecified)
inactive
